Experiment: xn = mol fraction of the nth substance listed
Conditions: 308.15 K; 101 kPa; x2 = 0.5

- compound: "CCCCCCCCCCO + CCCCO"
  viscosity (mPa·s): 4.456
- compound: "CCCCCCCCCCO + CO"
  viscosity (mPa·s): 3.481
- compound: "Cc1ccccc1C + C1COCCO1"
  viscosity (mPa·s): 0.774
- compound: "CCCCCCCCCCO + CCO"
  viscosity (mPa·s): 3.671
- compound: "CCCCCCCCCCO + CCCO"
  viscosity (mPa·s): 4.802

###

Experiment: xn = mol fraction of the nth substance listed
Conditions: 318.15 K; 101 kPa; x2 = 0.45

- compound: "CCCCCCCCCCO + CO"
  readingUnit: "mPa·s"
  viscosity: 3.003
- compound: "CCCCCCCCCCO + CCO"
  readingUnit: "mPa·s"
  viscosity: 2.912
- compound: "CCCCCCCCCCO + CCCCO"
  readingUnit: "mPa·s"
  viscosity: 3.475
- compound: "CCCCCCCCCCO + CCCO"
  readingUnit: "mPa·s"
  viscosity: 3.572
